Structures can show the parent of a compound that is named as a salt.
Target or system recombinant human AChE (Homo sapiens); recorded quantity Efficacy.
Write the number on its own, no unit after it.

CN1CCCN=C1/C=C/c1cccs1.O=C(O)C(O)C(O)C(=O)O [Pyrantel tartrate] :: 0
O=C(C[S+]([O-])Cc1ccco1)NC/C=C\COc1cc(CN2CCCCC2)ccn1 (stereo not drawn) :: 0
COP(=O)(OC)O/C(C)=C/C(=O)N(C)C :: 0
CCOC(=O)C(SP(=S)(OC)OC)c1ccccc1 (stereo not drawn) [Phenthoate] :: -48.701
CNC(=O)/C=C(\C)OP(=O)(OC)OC :: -13.186

What measured Efficacy is associated with Cc1nc2n(c(=O)c1CCN1CCC(C(=O)c3ccc(F)cc3)CC1)CCS2 [Setoperone, reference compound] on recombinant human AChE (Homo sapiens)? 0

What about CCOP(=S)(OCC)SCSCC [Phorate] ? 0

What about CCSCc1ccccc1OC(=O)NC ? -27.523

What about CCCN[C@H]1CCc2nc(N)sc2C1 [Pramipexole dihydrochloride monohydrate] ? -16.414

====

Molecular target: recombinant human AChE (Homo sapiens, UniProt P22303)
Sequence (P22303 32-614): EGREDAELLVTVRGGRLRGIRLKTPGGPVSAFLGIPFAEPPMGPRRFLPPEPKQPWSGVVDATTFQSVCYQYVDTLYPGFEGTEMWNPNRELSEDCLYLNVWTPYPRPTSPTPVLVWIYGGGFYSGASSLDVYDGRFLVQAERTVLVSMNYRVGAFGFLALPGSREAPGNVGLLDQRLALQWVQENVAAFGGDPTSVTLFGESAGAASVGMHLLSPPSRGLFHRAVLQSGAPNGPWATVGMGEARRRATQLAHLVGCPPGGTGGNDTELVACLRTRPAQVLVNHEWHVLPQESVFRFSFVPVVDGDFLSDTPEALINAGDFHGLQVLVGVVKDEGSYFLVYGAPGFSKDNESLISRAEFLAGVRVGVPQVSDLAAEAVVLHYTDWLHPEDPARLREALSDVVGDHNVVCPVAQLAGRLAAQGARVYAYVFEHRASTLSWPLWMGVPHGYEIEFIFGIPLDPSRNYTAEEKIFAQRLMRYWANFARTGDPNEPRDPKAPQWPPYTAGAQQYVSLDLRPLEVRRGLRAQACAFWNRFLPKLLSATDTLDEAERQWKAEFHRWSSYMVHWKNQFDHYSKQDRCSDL
Test: biochemical
Settings: IC50 (uM)
Counter-ions that a name gives are not always drawn.
Readout name: IC50 (µM)
Give your result in µM as a bare value.

Some solved cases for reference:
COP(=O)(OC)O/C(=C\Cl)c1cc(Cl)c(Cl)cc1Cl :: 71
CN1C(=O)COc2c(C(=O)NC3CN4CCC3CC4)cc(Cl)cc21 (centres unmarked) [Azasetron hydrochloride, reference compound] :: 30.9
CNC(=O)O/N=C(\C)C(C)S(C)(=O)=O (centres unmarked) :: 794
CCCSP(=O)(OCC)Oc1ccc(Br)cc1Cl (centres unmarked) :: 3.87
CCCCC(CC)CNC(=N)NC(=N)NCCCCCCNC(=N)NC(=N)NCC(CC)CCCC (centres unmarked) [Alexidine dihydrochloride] :: 17.4
COc1ccc(C(=O)NCc2ccc(OCCN(C)C)cc2)cc1OC.Cl [Itopride hydrochloride, reference compound] :: 27.5
CNP(=O)(OC)Oc1ccc(C(C)(C)C)cc1Cl (centres unmarked) [Crufomate] :: 79.6
Cc1nc2n(c(=O)c1CCN1CCC(C(=O)c3ccc(F)cc3)CC1)CCS2 [Setoperone, reference compound] :: 30.9
O=C(C[S+]([O-])Cc1ccco1)NC/C=C\COc1cc(CN2CCCCC2)ccn1 (centres unmarked) :: 34.7
CCCCOc1ccc(C(=O)CCN2CCCCC2)cc1 [Dyclonine hydrochloride] :: 27.5

If you can, please state the reported IC50 value of CCOP(=S)(OCC)SCSc1ccc(Cl)cc1 . 89.4

What about CCCCCC1Nc2cc(C(F)(F)F)c(S(N)(=O)=O)cc2S(=O)(=O)N1 (centres unmarked) [Penflutizide] ? 21.9

What about CCN1CCC2(CC1)COc1cc3c(cc12)N(C(=O)c1ccc(-c2ccc(-c4nnc(C)o4)cc2C)cc1)CC3.Cl [SB236057A] ? 32.8

====

Readings of CC-v2 (curve classes) for the listed molecules
Target: recombinant human AChE (Homo sapiens, UniProt P22303)
Test: biochemical

[H]/N=C(\N/C(=N/[H])NCCCCCCNC(=N)NC(=N)Nc1ccc(Cl)cc1)Nc1ccc(Cl)cc1 [Chlorhexidine diacetate, reference compound] :: -2.1
C[n+]1cc2c3c(ccc2c2ccc4cc5c(cc4c21)OCO5)OCO3 :: -2.2
CN(C)c1ccc(C(=C2C=CC(=[N+](C)C)C=C2)c2ccc(N(C)C)cc2)cc1.[Cl-] [Methylrosaniline chloride] :: -2.1

If you can, please state the reported CC-v2 (curve classes) value of COP(=S)(OC)Oc1nc(Cl)c(Cl)cc1Cl . 4

What about O=C1c2c(O)ccc(Nc3ccc(CCO)cc3)c2C(=O)c2c([N+](=O)[O-])ccc(O)c21 ? -1.2

====

Counter-ions that a name gives are not always drawn.
Target or system recombinant human AChE (Homo sapiens, UniProt P22303); recorded quantity Efficacy.
Write the number on its own, no unit after it.

COP(=O)(OC)O/C(=C\Cl)c1cc(Cl)c(Cl)cc1Cl :: 0

If you can, please state the reported Efficacy value of Cc1nc2n(c(=O)c1CCN1CCC(c3noc4cc(F)ccc34)CC1)CCCC2 . 0

What about [H]/N=C(\N/C(=N/[H])NCCCCCCNC(=N)NC(=N)Nc1ccc(Cl)cc1)Nc1ccc(Cl)cc1 [Chlorhexidine dihydrochloride] ? 14.978

What about [H]/N=C(\N/C(=N/[H])NCCCCCCNC(=N)NC(=N)Nc1ccc(Cl)cc1)Nc1ccc(Cl)cc1 [Chlorhexidine diacetate, reference compound] ? 0

====

Target: recombinant human AChE (Homo sapiens, UniProt P22303)
Experiment: biochemical
# note: boundary value -2 maps to 0.0; CC-v2 (curve classes) below it maps to 1.0

Reference set, count: 8
CCSCc1ccccc1OC(=O)NC [Ethiofencarb] :: 0.0
Nc1c(NC/C=C\COc2cc(CN3CCCCC3)ccn2)c(=O)c1=O [Pibutidine] :: 1.0
CCOP(=S)(OCC)Oc1cc(-c2ccccc2)on1 [Isoxathion] :: 1.0
CCOP(=S)(OCC)Oc1cc(Cl)c(Br)cc1Cl [Bromophos-ethyl] :: 1.0
CCCCCC1Nc2cc(C(F)(F)F)c(S(N)(=O)=O)cc2S(=O)(=O)N1 (stereo not drawn) [Penflutizide] :: 1.0
CC[C@@H](CO)NC(=O)[C@@H]1C=C2c3cccc4c3c(cn4C)C[C@H]2N(C)C1 [Methysergide] :: 0.0
Cc1nc2ccccn2c(=O)c1CCN1CCC(C(=O)c2ccc(F)cc2)CC1 [Pirenperone] :: 1.0
CCCCCCCCCC[N+](C)(CCCCCCCCCC)CCC[Si](OC)(OC)OC.[Cl-] [Disiquonium chloride] :: 1.0

Please determine if Cc1nccn1CC1CCc2c(c3ccccc3n2C)C1=O (stereo not drawn) [Ondansetron] is below -2 in terms of CC-v2 (curve classes). 0.0

====

Target: AChE in neural stem cell spheroids (Homo sapiens, UniProt P22303)
Sequence (P22303 32-614): as above
Assay: cell-based
Settings: read-out: potency (IC50), Neural stem cell spheroid (24 h)
Readout name: IC50

What measured IC50 is associated with CCOP(=S)(OCC)Oc1nc(Cl)c(Cl)cc1Cl [Chlorpyrifos, reference compound] on AChE in neural stem cell spheroids (Homo sapiens, UniProt P22303)? 1.21 µM

====

Target: recombinant human AChE (Homo sapiens)
Counter-ions that a name gives are not always drawn.
Readout name: CC-v2 (curve classes)

Some solved cases for reference:
COc1ccc(C(=O)NCc2ccc(OCCN(C)C)cc2)cc1OC.Cl [Itopride hydrochloride, reference compound] :: 4
O=C(CCC1CCN(Cc2ccccc2)CC1)c1ccc2c(c1)NCCCC2.O=C(O)/C=C/C(=O)O [Zanapezil fumerate, reference compound] :: -1.1

If you can, please state the reported CC-v2 (curve classes) value of CCOC(=O)c1cn2nc(OP(=S)(OCC)OCC)cc2nc1C . -1.1

What about CC(C)C[C@H]1C(=O)N2CCC[C@H]2[C@]2(O)O[C@](NC(=O)[C@@H]3C=C4c5cccc6[nH]c(Br)c(c56)C[C@H]4N(C)C3)(C(C)C)C(=O)N12 [Bromocriptine mesylate] ? 4

What about CNC(=O)Oc1ccccc1OC(C)C ? -1.1

What about Cc1nccn1CC1CCc2c(c3ccccc3n2C)C1=O (stereo not drawn) ? 4

What about COP(N)(=S)Oc1ccccc1C(=O)OC(C)C (stereo not drawn) ? -1.1

What about CN(C)c1ccc(C(=C2C=CC(=[N+](C)C)C=C2)c2ccc(N(C)C)cc2)cc1.[Cl-] [Methylrosaniline chloride] ? 4

What about CNC(=O)ON=C(C)SC ? -1.1

====

Readings of CC-v2 (curve classes) for the listed compounds
Molecular target: recombinant human AChE (Homo sapiens, UniProt P22303)
Assay: biochemical
Where a name gives a salt, the structure may show the parent alone.
Write the number on its own, no unit after it.

Some solved cases for reference:
CCCCCCCCCCCCCC[n+]1ccccc1 [Tetradecylpyridinium bromide] :: -2.1
C[C@H]1[C@@H]2Cc3ccc(O)cc3[C@@]1(C)CCN2C.C[C@H]1[C@@H]2Cc3ccc(O)cc3[C@@]1(C)CCN2C.O=C(O)/C=C/C(=O)O [(+)-Metazocine fumarate (2:1)] :: -2.1
CN1CCCN=C1/C=C/c1cccs1.O=C(O)C(O)C(O)C(=O)O [Pyrantel tartrate] :: -2.4

What measured CC-v2 (curve classes) is associated with CCN(CC)CCNC(=O)c1c(C)[nH]c(/C=C2\C(=O)Nc3ccc(F)cc32)c1C [Sunitinib malate, reference compound] on recombinant human AChE (Homo sapiens, UniProt P22303)? -1.1

What about CNC(=O)O/N=C(\C)C(C)S(C)(=O)=O (stereo not shown) [Butoxycarboxim] ? -2.2

What about CCOC(=O)c1ccc(NC(=O)CN2CCCCC2)cc1 [Sulcaine, reference compound] ? -2.2

What about CCCCC(CC)CNC(=N)NC(=N)NCCCCCCNC(=N)NC(=N)NCC(CC)CCCC (stereo not shown) [Alexidine dihydrochloride] ? -1.1
